Property: log Conditional Stability Constant (@ pH) Cu^+2; scope: individual compounds
procedure.text: Calculated conditional stability constants for chelants with Cu^+2 at specified pH
Format: physicochemical
cond: pH 7
Field format: numeric only.

compound	observed
CC(C(=O)O)N(CC(=O)O)CC(=O)O (stereo not shown)	10.11
O=P(O)(O)CN(CCN(CP(=O)(O)O)CP(=O)(O)O)CCN(CP(=O)(O)O)CP(=O)(O)O	10.68
O=C(O)CN(CCN(CC(=O)O)CC(=O)O)CCN(CC(=O)O)CC(=O)O	16.31
O=C(O)CN(CCN(CC(=O)O)CC(=O)O)CC(=O)O	15.55
O=C(O)CC(NCC(O)CNC(CC(=O)O)C(=O)O)C(=O)O (stereo not shown)	9.43

For "O=C(O)CN(CCO)CCN(CC(=O)O)CC(=O)O" the compound record lists log Conditional Stability Constant (@ pH) Cu^+2 as 13.53

For "O=C(O)CC[C@@H](C(=O)O)N(CC(=O)O)CC(=O)O" the compound record lists log Conditional Stability Constant (@ pH) Cu^+2 as 9.47

====

procedure.text: Calculated conditional stability constants for chelants with Ca^+2 at specified pH
Format: physicochemical
cond: pH 8
Label rule, in plain words: log Conditional Stability Constant (@ pH) Ca^+2 of 3 and up is true (1), under 3 is false (0).

compound	class.label
O=C(O)CN(CCN(CC(=O)O)CC(=O)O)CCN(CC(=O)O)CC(=O)O	true (1)
O=C(O)CC(NCC(O)CNC(CC(=O)O)C(=O)O)C(=O)O (centres unmarked)	false (0)
O=C(O)CN(CCO)CCN(CC(=O)O)CC(=O)O	true (1)
O=C(O)CN(CCN(CC(=O)O)CC(=O)O)CC(=O)O	true (1)
O=C(O)CC(NCCNC(CC(=O)O)C(=O)O)C(=O)O (mixture of isomers)	false (0)
O=P(O)(O)CN(CCN(CP(=O)(O)O)CP(=O)(O)O)CCN(CP(=O)(O)O)CP(=O)(O)O	false (0)

Request: Is the recorded value of log Conditional Stability Constant (@ pH) Ca^+2 equal to or greater than 3 for this compound? "O=C(O)CC[C@@H](C(=O)O)N(CC(=O)O)CC(=O)O"
Response: true (1)

Request: Is the recorded value of log Conditional Stability Constant (@ pH) Ca^+2 equal to or greater than 3 for this compound? CC(C(=O)O)N(CC(=O)O)CC(=O)O (centres unmarked)
Response: true (1)

====

procedure.text: Calculated conditional stability constants for chelants with Ca^+2 at specified pH
Assay type: physicochemical
cond: pH 4
Property: log Conditional Stability Constant (@ pH) Ca^+2; scope: individual compounds
Field format: numeric only.

compound	observed
O=P(O)(O)CN(CCN(CP(=O)(O)O)CP(=O)(O)O)CCN(CP(=O)(O)O)CP(=O)(O)O	−13.50
CC(C(=O)O)N(CC(=O)O)CC(=O)O (centres unmarked)	0.18
O=C(O)CC(NCCNC(CC(=O)O)C(=O)O)C(=O)O (mixture of isomers)	−4.50
O=C(O)CN(CCN(CC(=O)O)CC(=O)O)CC(=O)O	2.36
O=C(O)CC[C@@H](C(=O)O)N(CC(=O)O)CC(=O)O	−1.45
O=C(O)CN(CCN(CC(=O)O)CC(=O)O)CCN(CC(=O)O)CC(=O)O	−0.75
O=C(O)CN(CCO)CCN(CC(=O)O)CC(=O)O	−0.35

For O=C(O)CC(NCC(O)CNC(CC(=O)O)C(=O)O)C(=O)O (centres unmarked) the compound record lists log Conditional Stability Constant (@ pH) Ca^+2 as −6.91
